Assay: Rat liver microsome stability assay
Format: in vitro ADME
Conditions: rat liver microsomes (male Sprague-Dawley), 0.5 μM test compound, 0.25 mg/mL microsomal protein, pH 7.4, 37° C.; read-out: Stability in rat liver microsomes (t1/2 in minutes)
PARAMETER MEASURED: half-life at 0.5 μM (min)

INSERT INTO measurements (smiles_repr, parameter_measured, result) VALUES
  ('Cn1cc(-c2cc(C(=O)NCCc3c[nH]c4ccccc34)ccc2Oc2ccc(F)cc2F)c2cc[nH]c2c1=O', 'half-life at 0.5 μM', 5),
  ('CCOC(=O)N1CCC(Oc2ccc(S(=O)(=O)CC)cc2-c2cn(C)c(=O)c3[nH]ccc23)CC1', 'half-life at 0.5 μM', 82);

(P) CCS(=O)(=O)Nc1ccc(Oc2ccc(F)cc2F)c(-c2cn(C)c(=O)c3[nH]c(CN4CCN(C)CC4)cc23)c1
(Q) Cn1cc(-c2cc(-c3cccnc3)ccc2OCC2CC2)c2cc[nH]c2c1=O
Decide: P or Q , by lowest recorded half-life at 0.5 μM. Indicate which entry you chose by stating its label.
Q
